In this section we review reported Kd values for a set of sequences.
- Tested system: HLA-A*02:03
- Experiment: IEDB peptide-MHC binding, purified MHC/competitive/radioactivity; filed as Kd, often an IC50 or EC50 that approximates it; bounds were set here for any values at or beyond the usual limits of such assays
- Condition description: source organism: Mammarenavirus brazilense
Property label: Kd (µM)

LLPDALLFTL: 0.732
MSPALFFTFL: 7.63

---

- Tested system: HLA-A*31:01
- Experiment: IEDB peptide-MHC binding, purified MHC/direct/fluorescence; filed as Kd, often an IC50 or EC50 that approximates it; bounds were set here for any values at or beyond the usual limits of such assays
- Condition description: source organism: SARS-CoV1
Property label: Kd (nM)

QLFKPLTKK: 980
VTFQGKFKK: 70.3

---

- Tested system: HLA-A*02:01
- Experiment: IEDB peptide-MHC binding, purified MHC/competitive/radioactivity; filed as Kd, often an IC50 or EC50 that approximates it; bounds were set here for any values at or beyond the usual limits of such assays
- Condition description: source organism: Trypanosoma cruzi
Property label: Kd

DVSRPTTVM: ≥ 69.4 µM

---

- Tested system: HLA-A*02:06
- Experiment: IEDB peptide-MHC binding, purified MHC/competitive/radioactivity; filed as Kd, often an IC50 or EC50 that approximates it; bounds were set here for any values at or beyond the usual limits of such assays
- Condition description: source organism: Trypanosoma cruzi
Property label: Kd (µM)

DVSRPTTVM: 15

---

- Tested system: HLA-A*02:01
- Experiment: IEDB peptide-MHC binding, purified MHC/competitive/fluorescence; filed as Kd, often an IC50 or EC50 that approximates it; bounds were set here for any values at or beyond the usual limits of such assays
- Condition description: source organism: Choclo virus
pKd: −log10 of the molar value.
Property label: pKd

GRFQEALKK: ≤ 4.70

---

- Tested system: HLA-B*57:01
- Experiment: IEDB peptide-MHC binding, purified MHC/competitive/fluorescence; filed as Kd, often an IC50 or EC50 that approximates it; bounds were set here for any values at or beyond the usual limits of such assays
- Condition description: source organism: Coxiella burnetii 'MSU Goat Q177'
pKd: −log10 of the molar value.
Property label: pKd

AVDWYQQRI: ≤ 4.70

---

- Tested system: HLA-A*69:01
- Experiment: IEDB peptide-MHC binding, purified MHC/direct/fluorescence; filed as Kd, often an IC50 or EC50 that approximates it; bounds were set here for any values at or beyond the usual limits of such assays
- Condition description: source organism: Vibrio cholerae
pKd: −log10 of the molar value.
Property label: pKd

MMFDAMGAL: 7.48

---

- Tested system: HLA-A*02:12
- Experiment: IEDB peptide-MHC binding, purified MHC/competitive/fluorescence; filed as Kd, often an IC50 or EC50 that approximates it; bounds were set here for any values at or beyond the usual limits of such assays
- Condition description: source organism: Vibrio parahaemolyticus AQ3810
Property label: Kd (nM)

MLTNASGHA: 438

---

- Tested system: HLA-A*11:01
- Experiment: IEDB peptide-MHC binding, purified MHC/direct/fluorescence; filed as Kd, often an IC50 or EC50 that approximates it; bounds were set here for any values at or beyond the usual limits of such assays
- Condition description: source organism: Fowlpox virus
Property label: Kd (nM)

RAFKYPFIK: 1.7
